system-tested: Single-stranded DNA-binding protein (Escherichia coli (strain K12)) (UniProt P0AGE0)
Sequence (P0AGE0 whole entry, looked up): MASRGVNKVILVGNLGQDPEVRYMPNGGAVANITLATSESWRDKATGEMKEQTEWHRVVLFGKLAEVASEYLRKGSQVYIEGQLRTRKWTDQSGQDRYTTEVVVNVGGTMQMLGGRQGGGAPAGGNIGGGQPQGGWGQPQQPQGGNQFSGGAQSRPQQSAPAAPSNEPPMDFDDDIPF
procedure-summary: displacement of E. coli SSB from DNA, late-stage follow-up, selectivity assay for HCV NS3 helicase inhibitor project, biochemical, fluorescence polarization (AID 623966)
experimental-context: E. coli SSB / Cy5-dT15 DNA
Calls of active or inactive are those of the source.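 Rule for the calls: active = compounds that push a bacterial single-strand DNA binding protein off labeled DNA, with IC50 up to 50 micromolar; inactive = the rest.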
Would you mind answering with one of these outcomes? active, inactive

Name the outcome recorded for `Cc1ccc(C(=O)Nc2ccc(-c3nc4ccc(-c5nc6ccc(C)c(S(=O)(=O)O)c6s5)cc4s3)cc2)cc1` in the assay.
active

Name the outcome recorded for `Cc1ccc2nc(-c3ccc4nc(-c5ccc(NC(=O)c6cccnc6)cc5)sc4c3)sc2c1S(=O)(=O)O` in the assay.
inactive

* * *

system-tested: Single-stranded DNA-binding protein (Escherichia coli (strain K12)) (UniProt P0AGE0)
procedure-summary: displacement of E. coli SSB from DNA, late-stage follow-up, selectivity assay for HCV NS3 helicase inhibitor project, biochemical, fluorescence polarization (AID 623966);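 active = compounds that push a bacterial single-strand DNA binding protein off labeled DNA, with IC50 up to 50 micromolar; inactive = the rest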
experimental-context: E. coli SSB / Cy5-dT15 DNA
Would you mind answering with one of these outcomes? active, inactive

Name the outcome recorded for `Cc1ccc2nc(-c3ccc4nc(-c5ccc(NC(=O)c6ccc(F)cc6)cc5)sc4c3)sc2c1S(=O)(=O)O` in the assay.
active

* * *

system-tested: Single-stranded DNA-binding protein (Escherichia coli (strain K12))
procedure-summary: displacement of E. coli SSB from DNA, late-stage follow-up, selectivity assay for HCV NS3 helicase inhibitor project, biochemical, fluorescence polarization (AID 623966)
experimental-context: E. coli SSB / Cy5-dT15 DNA
quantity: IC50

Below are worked cases with known answers.
| smiles-repr | system-tested | IC50 |
| --- | --- | --- |
| Cc1ccc2nc(-c3ccc(NC(=O)c4ccc(NC(=O)OCC5c6ccccc6-c6ccccc65)cc4)cc3)sc2c1S(=O)(=O)O | Single-stranded DNA-binding protein (Escherichia coli (strain K12)) | 27 µM |
| Cc1ccc2nc(-c3ccc(NC(=O)c4ccc(NC(=S)Nc5ccccc5)cc4)cc3)sc2c1S(=O)(=O)O | Single-stranded DNA-binding protein (Escherichia coli (strain K12)) | 23 µM |
| Cc1ccc2nc(-c3ccc4nc(-c5ccc(NC(=O)c6ccccc6)cc5)sc4c3)sc2c1S(=O)(=O)O | Single-stranded DNA-binding protein (Escherichia coli (strain K12)) | 4 µM |

What value of IC50 has been reported for the following compound? `Cc1ccc2nc(-c3ccc4nc(-c5ccc(N(C)C(=O)c6ccc7ccccc7c6)cc5)sc4c3)sc2c1S(=O)(=O)O`
9 µM

* * *

system-tested: Single-stranded DNA-binding protein (Escherichia coli (strain K12))
procedure-summary: displacement of E. coli SSB from DNA, late-stage follow-up, selectivity assay for HCV NS3 helicase inhibitor project, biochemical, fluorescence polarization (AID 623966)
experimental-context: E. coli SSB / Cy5-dT15 DNA
Activity calls are given as the source filed them.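 How the source made its calls: active means compounds that push a bacterial single-strand DNA binding protein off labeled DNA, with IC50 up to 50 micromolar; inactive means the rest.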
Would you mind answering with one of these outcomes? T for active, F for inactive

| smiles-repr | class-assignment |
| --- | --- |
| Cc1ccc2nc(-c3ccc4nc(-c5ccc(NC(=O)c6ccc(Br)cc6)cc5)sc4c3)sc2c1S(=O)(=O)O | T |

Name the outcome recorded for `COC(=O)c1ccc(C(=O)Nc2ccc(-c3nc4ccc(-c5nc6ccc(C)c(S(=O)(=O)O)c6s5)cc4s3)cc2)cc1` in the assay.
T

Name the outcome recorded for `Cc1ccc2nc(-c3ccc4nc(-c5ccc(NC(=O)c6cccc(C(F)(F)F)c6F)cc5)sc4c3)sc2c1S(=O)(=O)O` in the assay.
F
